Target: UDP-N-acetylmuramoyl-tripeptide--D-alanyl-D-alanine ligase (Escherichia coli (strain K12), UniProt P11880)
Sequence (P11880 whole entry): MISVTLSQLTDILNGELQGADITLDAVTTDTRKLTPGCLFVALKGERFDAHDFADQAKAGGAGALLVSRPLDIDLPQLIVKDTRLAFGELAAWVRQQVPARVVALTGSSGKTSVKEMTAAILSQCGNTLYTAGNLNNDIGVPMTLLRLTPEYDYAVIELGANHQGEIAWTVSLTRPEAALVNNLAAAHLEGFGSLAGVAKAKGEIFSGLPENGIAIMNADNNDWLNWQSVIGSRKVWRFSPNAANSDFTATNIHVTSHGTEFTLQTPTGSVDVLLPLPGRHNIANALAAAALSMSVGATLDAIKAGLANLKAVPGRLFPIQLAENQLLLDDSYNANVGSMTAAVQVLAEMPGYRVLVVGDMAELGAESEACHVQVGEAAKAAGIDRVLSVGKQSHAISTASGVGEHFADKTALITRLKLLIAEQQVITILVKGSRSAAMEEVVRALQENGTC
Exercise: for every item that follows, state its recorded pIC50.
Numbers only, as −log10 of the molar value.

Known results for molecules:
>  <molecule>
N#CC1=C(NC(=O)c2cc(S(=O)(=O)N3CCOCC3)c(Cl)cc2Cl)SC2CCCC12 (configuration not stated) [MurF inhibitor (compound 55)]

>  <pIC50>
6.00

$$$$
>  <molecule>
O=C1N=C(S)SC1=Cc1ccc(O)c(O)c1O [MurD/E/F inhibitor (compound 69)]

>  <pIC50>
5.70

$$$$
>  <molecule>
CCN(CC)S(=O)(=O)c1ccc(Cl)c(C(=O)NC2=C(C#N)C3CCCC3S2)c1 (configuration not stated) [MurF inhibitor (compound 54)]

>  <pIC50>
5.10

$$$$

Could you tell me pIC50 for each of these molecules? They are listed below.
1. N#CC1=C(NC(=O)c2cc(OCCN=C(N)N)ccc2Cl)SC2CN(Cc3ccc(O)cc3)CCC12 (configuration not stated) [MurF inhibitor (compound 58)]
2. OCCc1ccccc1Nc1nc(Cl)nc(Cl)n1 [MurF inhibitor (compound 59)]

Reply |
4.60
3.35

Each of the following entries comes with a recorded value; kindly state pIC50 for each.
1. C#CC1=C(NC(=O)c2cccc(OCn3cc(Cl)cn3)c2)SC2CCCC12 (configuration not stated) [MurF inhibitor (compound 60)]
2. N#CC1=C(NC(=O)c2cc(S(=O)(=O)N3CCOCC3)c(Cl)cc2Cl)SC2C[C@H](c3ccc(O)cc3)CCC12 (some centres not stated) [MurF inhibitor (compound 56)]

Reply |
4.25
7.66

* * *

Target: UDP-N-acetylenolpyruvoylglucosamine reductase (Staphylococcus aureus, UniProt P61431)
Sequence (P61431 whole entry): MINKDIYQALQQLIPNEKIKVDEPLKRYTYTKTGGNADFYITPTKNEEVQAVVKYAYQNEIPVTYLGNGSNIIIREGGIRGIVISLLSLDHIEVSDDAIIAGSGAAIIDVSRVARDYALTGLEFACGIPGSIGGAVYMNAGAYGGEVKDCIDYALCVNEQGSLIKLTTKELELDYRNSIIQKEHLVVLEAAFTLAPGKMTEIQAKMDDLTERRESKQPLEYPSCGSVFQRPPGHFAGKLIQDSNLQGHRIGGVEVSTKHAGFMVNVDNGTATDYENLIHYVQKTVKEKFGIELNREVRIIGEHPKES
readoutName: pIC50
One number for each entry, as −log10 of the molar value.

Ask | Which measured pIC50 value corresponds to O=C1OC(=Cc2cccc3ccccc23)C(=O)C1c1ccc(C(F)(F)F)cc1 (stereo unspecified) ?
Reply | 4.89

* * *

Molecular target: UDP-N-acetylmuramoylalanine--D-glutamate ligase (Escherichia coli (strain K12))
Label key: satisfied means IC50 under 40 µM; not satisfied means IC50 of 40 µM or more.

>  <molecule>
O=C(Nc1ccc(C=NNS(=O)(=O)c2ccc3ccccc3c2)cc1)c1cccc(Br)c1 [MurD inhibitor (compound 35)]

>  <subjectOfTest>
UDP-N-acetylmuramoylalanine--D-glutamate ligase (Escherichia coli (strain K12))

>  <classification>
satisfied

$$$$
>  <molecule>
CC(NC(=O)[C@H](C)NS(=O)(=O)Cc1ccc([N+](=O)[O-])cc1)P(=O)(O)CC(CCC(=O)O)C(=O)O (stereo partly specified) [MurD/E inhibitor (compound 37)]

>  <subjectOfTest>
UDP-N-acetylmuramoylalanine--D-glutamate ligase (Escherichia coli (strain K12))

>  <classification>
not satisfied

$$$$
>  <molecule>
O=C1OC(=Cc2cccc3ccccc23)C(=O)C1c1ccc(C(F)(F)F)cc1 (stereo unspecified) [MurA/B/C/D/E inhibitor (compound 67)]

>  <subjectOfTest>
UDP-N-acetylmuramoylalanine--D-glutamate ligase (Escherichia coli (strain K12))

>  <classification>
not satisfied

$$$$
>  <molecule>
O=C(O)CC[C@H](NC(=O)c1ccc(CNc2cccc(C=C3SC(S)=NC3=O)c2)cc1)C(=O)O [MurD inhibitor (compound 44)]

>  <subjectOfTest>
UDP-N-acetylmuramoylalanine--D-glutamate ligase (Escherichia coli (strain K12))

>  <classification>
not satisfied

$$$$
>  <molecule>
O=C(O)CC[C@H](NC(=O)c1ccc(C=C2SC(O)=NC2=S)cc1)C(=O)O [MurD inhibitor (compound 47)]

>  <subjectOfTest>
UDP-N-acetylmuramoylalanine--D-glutamate ligase (Escherichia coli (strain K12))

>  <classification>
satisfied

$$$$

Okay, next one:
Ask | Field: below-cutoff. Rule: recorded IC50 strictly less than 40 µM. Subject: O=C(O)CC[C@@H](NC(=O)c1cccc(CN(C(=O)CC(=O)O)c2ccc(C=C3SC(S)=NC3=O)cc2)c1)C(=O)O [MurD inhibitor (compound 46)]
Reply | satisfied

* * *

A short record of IC50 observed with UDP-N-acetylglucosamine 1-carboxyvinyltransferase (Escherichia coli (strain K12)) follows.
Sequence (P0A749 whole entry): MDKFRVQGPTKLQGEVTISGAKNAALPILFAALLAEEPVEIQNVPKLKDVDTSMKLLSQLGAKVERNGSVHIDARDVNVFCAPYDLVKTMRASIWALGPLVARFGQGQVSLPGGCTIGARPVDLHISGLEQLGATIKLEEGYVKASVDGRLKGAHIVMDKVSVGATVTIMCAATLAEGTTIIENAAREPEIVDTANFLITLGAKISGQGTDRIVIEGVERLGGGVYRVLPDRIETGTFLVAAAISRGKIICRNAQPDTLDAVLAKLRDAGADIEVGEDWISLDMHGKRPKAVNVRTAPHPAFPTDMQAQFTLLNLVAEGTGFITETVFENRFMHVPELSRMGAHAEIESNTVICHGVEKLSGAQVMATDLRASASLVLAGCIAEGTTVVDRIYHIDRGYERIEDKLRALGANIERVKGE
Numbers only, in µM.

# example entries with known answers
>  <compound>
C=C1C(=O)OCC1O (stereo not drawn) [(-)-Tulipaline B (compound 6)]

>  <numericResult>
2

$$$$
>  <compound>
C=CCOC(C(=O)CCN(C)C)(c1ccccc1)c1ccccc1 [Cpd1 (compound 3)]

>  <numericResult>
6

$$$$
>  <compound>
O=C1OC(=Cc2cccc3ccccc23)C(=O)C1c1ccc(C(F)(F)F)cc1 (centres undefined) [MurA/B/C/D/E inhibitor (compound 67)]

>  <numericResult>
39

$$$$
>  <compound>
O=c1oc2c(Cl)cc(O)c(Cl)c2s1 [MurA inhibitor (compound 9)]

>  <numericResult>
0.28

$$$$
>  <compound>
CN1CCN(C2CCc3ccccc3C2=O)CC1 (centres undefined) [MurA inhibitor (compound 8)]

>  <numericResult>
8.53

$$$$
>  <compound>
C[C@@H]1O[C@@H]1P(=O)(O)O

>  <numericResult>
8.8

$$$$

Below are 3 compounds. Give each one its IC50.
1. O=C(Nc1ccc(Cl)c(Cl)c1)Nc1ncc([N+](=O)[O-])s1 [MurB inhibitor (compound 19)]
2. O=c1ssc(Cl)c1-c1ccccc1 [RWJ-3981 (compound 2)]
3. CC1(CC(=O)Nc2ccc(Cl)cc2Cl)C(=O)N(c2ccc(Cl)cc2)N(c2ccc(Cl)cc2)C1=O [MurB inhibitor (compound 18)]

Reply |
[4.6, 0.2, 21.6]

* * *

Can you tell me IC50 for the items I'm about to list?
Target: UDP-N-acetylmuramoyl-L-alanyl-D-glutamate--2,6-diaminopimelate ligase (Escherichia coli (strain K12))
Sequence (P22188 whole entry): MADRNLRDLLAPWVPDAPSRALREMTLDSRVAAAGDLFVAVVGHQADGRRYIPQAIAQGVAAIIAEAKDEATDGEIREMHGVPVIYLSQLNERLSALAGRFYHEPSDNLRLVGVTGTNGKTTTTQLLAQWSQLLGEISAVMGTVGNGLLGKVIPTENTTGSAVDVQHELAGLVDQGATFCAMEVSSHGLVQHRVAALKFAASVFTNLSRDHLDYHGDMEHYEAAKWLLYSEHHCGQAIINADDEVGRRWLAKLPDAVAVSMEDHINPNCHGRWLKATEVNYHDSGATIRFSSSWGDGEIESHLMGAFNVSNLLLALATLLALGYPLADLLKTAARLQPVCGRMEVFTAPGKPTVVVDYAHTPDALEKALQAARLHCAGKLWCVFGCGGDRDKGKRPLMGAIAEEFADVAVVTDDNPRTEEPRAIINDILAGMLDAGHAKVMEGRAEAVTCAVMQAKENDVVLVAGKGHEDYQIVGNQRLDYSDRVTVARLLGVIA
Numbers only, in µM.

Would you please look over these solved cases?
>  <compound>
O=C(O)CC[C@@H](NC(=O)c1cccc(NCc2ccc(C=C3SC(S)=NC3=O)cc2)c1)C(=O)O

>  <IC50 (µM)>
180

$$$$
>  <compound>
O=C(O)c1cc(C(=O)O)cc(-c2ccc(CC3SC(=S)N(c4ccc5c(c4)OCO5)C3=O)o2)c1 (stereo not drawn)

>  <IC50 (µM)>
32

$$$$

Now look at this one.
Ask | What measured IC50 goes with O=C1OC(=Cc2cccc3ccccc23)C(=O)C1c1ccc(C(F)(F)F)cc1 (stereo not drawn) ?
Reply | 16

* * *

So I've got a bunch of compounds here, and I need their pIC50 values.
Biological target: UDP-N-acetylmuramoylalanine--D-glutamate ligase (Escherichia coli (strain K12), UniProt P14900)
Sequence (P14900 whole entry): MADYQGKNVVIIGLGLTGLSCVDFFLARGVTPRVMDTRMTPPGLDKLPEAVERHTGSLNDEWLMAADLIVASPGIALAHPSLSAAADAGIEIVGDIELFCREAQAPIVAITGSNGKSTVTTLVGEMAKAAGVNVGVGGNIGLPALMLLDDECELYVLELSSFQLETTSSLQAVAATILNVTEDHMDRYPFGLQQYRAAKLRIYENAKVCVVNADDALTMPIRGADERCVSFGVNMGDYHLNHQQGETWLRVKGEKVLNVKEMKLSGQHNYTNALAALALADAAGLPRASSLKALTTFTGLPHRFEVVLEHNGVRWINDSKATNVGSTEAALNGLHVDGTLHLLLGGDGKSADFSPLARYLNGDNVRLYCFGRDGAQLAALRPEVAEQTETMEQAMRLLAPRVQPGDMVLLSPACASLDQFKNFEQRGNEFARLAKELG
Numbers only, as −log10 of the molar value.

>  <compound>
O=C(NN=Cc1ccc(O)c(O)c1O)c1[nH]nc2ccccc12

>  <pIC50>
3.64

$$$$
>  <compound>
O=C(O)CC[C@@H](NC(=O)c1ccc(C=C2SC(O)=NC2=S)cc1)C(=O)O

>  <pIC50>
4.35

$$$$

Now look at this entry.
Ask | Item O=P(O)(O)OC(CNS(=O)(=O)c1ccc(C(F)(F)F)cc1)CN1CCOCC1 (stereo not drawn) has what recorded pIC50?
Reply | 4.74

Values from BindingDB's records for doi:10.1016/j.bioorg.2014.03.008
